Target: G1 APOL1 (Homo sapiens, UniProt O14791, I384M/S342G)
Construct: expressed in transfected cells
Sequence (O14791 28-398 S342G/I384M): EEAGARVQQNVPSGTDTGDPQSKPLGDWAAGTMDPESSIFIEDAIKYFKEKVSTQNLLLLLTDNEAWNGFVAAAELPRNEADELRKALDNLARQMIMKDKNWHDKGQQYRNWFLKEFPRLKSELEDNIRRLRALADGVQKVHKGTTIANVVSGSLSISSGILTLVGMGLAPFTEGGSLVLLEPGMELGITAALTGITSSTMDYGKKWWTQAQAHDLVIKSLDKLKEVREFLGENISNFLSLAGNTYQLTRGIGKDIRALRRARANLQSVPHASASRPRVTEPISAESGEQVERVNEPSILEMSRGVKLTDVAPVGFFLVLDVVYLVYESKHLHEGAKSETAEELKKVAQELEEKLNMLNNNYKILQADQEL
Assay: Acute APOL1 Thallium Assay with inducible stable clones of HEK 293 cells
Format: cell-based
Conditions: HEK 293 T-Rex inducible stable clone expressing G1 APOL1; read-out: Thallium Assay (IC50)
Please go through the items and note down their IC50.

- compound: "COc1ccc(-c2[nH]c3c(F)cc(F)cc3c2C2CC(CN)C2)cc1 (stereo not shown)"
  endpoint.value: "< 250 nM"

Give one value of IC50 per listed compound.
1. O[C@H]1C[C@H](c2c(-c3ccc(F)cc3)[nH]c3c(F)cc(F)cc32)C1
2. CN(CC(=O)N[C@H]1C[C@@H](c2c(-c3ccc(F)cc3)[nH]c3c(F)cc(F)cc32)C1)S(C)(=O)=O
3. O=S(=O)(NC[C@H]1C[C@H](c2c(-c3ccc(F)cc3)[nH]c3c(F)cc(F)cc32)C1)N[C@@H](CO)C(F)F
4. CN(C)CCC(=O)N[C@H]1C[C@H](c2c(-c3ccc(F)cc3)[nH]c3c(F)cc(F)cc32)C1

Key:
1. < 250 nM
2. > 1000 nM
3. > 1000 nM
4. > 1000 nM

Give one value of IC50 per listed compound.
1. C[C@H](O)C(=O)NC1CC(Cc2c(-c3ccc(F)cc3)[nH]c3c(F)cc(F)cc23)C1 (stereo partly shown)
2. N[C@H]1CC[C@H](c2c(-c3ccc(F)cc3)[nH]c3c(F)cc(F)cc32)CC1 (single isomer, unassigned)

Key:
["250 to 1000 nM", "250 to 1000 nM"]
